Biological target: T1, IFN-αF (human, UniProt P01568 24-189)
T1 construct: also called IFN-α21; alpha F
T1 chain: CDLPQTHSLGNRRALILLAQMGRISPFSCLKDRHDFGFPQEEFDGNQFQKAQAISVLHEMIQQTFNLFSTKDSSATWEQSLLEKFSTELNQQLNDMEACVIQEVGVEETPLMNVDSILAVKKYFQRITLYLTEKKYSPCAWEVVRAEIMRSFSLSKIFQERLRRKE
Assay: ProteOn, one antigen concentration
This section presents binders with their documented Kd values.
Value expressed in pM; do not type the unit.

>  <binder>
IFWM3344 (antibody, V domains shown, VH IFWH624, VL IFWL998; converted mAb; also called IFWB3079) VH: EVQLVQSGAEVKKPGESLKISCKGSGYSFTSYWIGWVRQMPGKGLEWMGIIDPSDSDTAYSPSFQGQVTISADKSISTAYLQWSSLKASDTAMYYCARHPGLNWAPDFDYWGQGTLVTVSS VL: DIQMTQSPSSLSASVGDRVTITCRASQSISKFLNWYQQKPGKAPKLLIYFASSLQSGVPSRFSGSGSGTDFTLTISSLQPEDFATYYCQQSNTLPFTFGQGTKVEIK

>  <Kd (pM)>
140

$$$$

In the following, a different binder is considered.
The binder listed as IFWM3343 (antibody, V domains shown, VH IFWH624, VL IFWL997; converted mAb; also called IFWB3078) VH: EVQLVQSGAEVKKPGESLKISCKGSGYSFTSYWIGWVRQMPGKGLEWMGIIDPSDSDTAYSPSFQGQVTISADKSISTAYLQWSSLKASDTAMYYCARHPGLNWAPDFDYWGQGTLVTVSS VL: DIQMTQSPSSLSASVGDRVTITCRASQSIGSALNWYQQKPGKAPKLLIYFASSLQSGVPSRFSGSGSGTDFTLTISSLQPEDFATYYCQQSYDFPLTFGQGTKVEIK has a reported Kd of 63
